Target: TSPAN3
Experiment: pooled miR-30 sensor sort-seq; sequence = guide strand; note: reference of the scale not given here
Details: shRNA
parameter: sensor-assay potency score (higher = more potent)

# sequence string, result
data = [
    ("AATTCCACAACAATGCAGCTGT", 0.00279),
    ("TACACTTTCTGAATGCTGCGAT", 1.02),
    ("TTATACACTTTCTGAATGCTGC", -0.18),
    ("TTTCTTGTAGCTTCTTCACTAC", -0.264),
]

====

Target: DGKE
Assay: pooled miR-30 sensor sort-seq; sequence = guide strand
Settings: shRNA
We use -0.4 as the dividing line for sensor-assay potency score (higher = more potent): on or above the line is class 1, below is class 0.

# sequence string, group label
rows = [
    ("TTTTGGATGAACATGTATCTAC", "class 1"),
    ("TTCTTGAGCATAATCTCCTTGC", "class 1"),
    ("TTAATTTGATCTTTCCACCCAC", "class 1"),
    ("TTGAACTTTCCATCGATCTAGT", "class 1"),
    ("TTTGTTACTTGAACTTTCCATC", "class 0"),
    ("TTGACAGCCACACTGCTGCTTG", "class 1"),
    ("TTACTTGAACTTTCCATCGATC", "class 0"),
]

====

Target: B3GNT9
Experiment: pooled miR-30 sensor sort-seq; sequence = guide strand
Settings: shRNA
parameter: sensor-assay potency score (higher = more potent)

# sequence string, result
data = [
    ("TAGTACTTGCTAGCCCGCGTGC", -1.22),
    ("TTAATGAGCAGTGGAAACCGCC", -0.997),
    ("AAGTGGATCTCCTTGAGCGTTA", -0.755),
    ("TGCACTACAACCAGCTCACGGT", -0.863),
    ("AAAAACGAAGCGCACGTCGGGG", -1.1),
    ("TCGGGGATGTAGTACTTGCTAG", -1.49),
]

====

Target: MPZL1
Experiment: pooled miR-30 sensor sort-seq; sequence = guide strand
Settings: shRNA
We use -0.2 as the dividing line for sensor-assay potency score (higher = more potent): on or above the line is T, below is F.

# sequence string, study target, group label
measured = [
    ("TTTTCTATGTTGATTGATGCAT", "MPZL1", "F"),
    ("TTGACATCACAGATATAGGTGC", "MPZL1", "T"),
    ("TATTTATACATATCCTTTGTAC", "MPZL1", "F"),
    ("TTTTTCTACGACATAGAGCCTA", "MPZL1", "T"),
    ("ATATTTTCTATGTTGATTGATG", "MPZL1", "F"),
    ("TACACCACAGACTCTGACTTGT", "MPZL1", "T"),
]

====

Target: NR3C1
Test: pooled miR-30 sensor sort-seq; sequence = guide strand
Conditions: shRNA
We use -0.9 as the dividing line for sensor-assay potency score (higher = more potent): on or above the line is Satisfied, below is Not satisfied.

# sequence string, group label
measured = [
    ("TTTTCTTCGAATTTTATCGATG", "Not satisfied"),
    ("TTGACAAAACCAGATCTCCATT", "Not satisfied"),
    ("TTACATTGGTCGTACATGCAGG", "Satisfied"),
    ("TTGAAGAAAACTTTACAGCTTC", "Satisfied"),
    ("TAGAATATTGACACACTTGAAT", "Satisfied"),
    ("TTCATCTATCAACAGGTCTGAT", "Satisfied"),
    ("TAGAAAAAACTGTTCGACCAGG", "Satisfied"),
]
